target: T1, SARS-CoV-2 S1 (S1 subunit of spike protein of SARS-CoV-2) (SARS-CoV-2, UniProt P0DTC2 14-685); experiment: ELISA, SARS-CoV-2 S1 coated on the plate, anti-human IgG-HRP, OD450
T1 construct: domain: S1; also called SARS-CoV-2 Spike protein S1 domain
experimentalEndpoint: EC50 (read off the curve)

Please state EC50 (read off the curve) for every binder in the list that follows.
1. Antibody 12-11 (antibody, V domains shown) VH: QVQVVQSGAEVKKPGASVKVSCKVSGYTLIEISIHWVRQAPGKGLEWMGGFDPEAGETIYAQKFQGRVTMTEDTSTDTAYMEVSSLRSEDTAVYYCATGPAIAAAETNWFDLWGQGTLVTVSS VL: QSALTQPASVSGSPGQSITISCTGTSSDVGSYNYVSWYQQHPGKAPKLMIYDVTKRPSGVPDRFSGSKSGNTASLTISGLQAEDEADYYCSSYTSSSTWVFGGGTKLTVL
2. Antibody 12-17 (antibody, V domains shown) VH: EVQLVESGGGLVKPGGSLRLSCAASGFTLNSYSMNWVRQAPGKGLEWVSSISSTSSDIYYADSVKGRFTISRDNAKNSVDLQMNSLRAEDTAVYYCATNGGAHRNTWSFYGMDVWGQGTTVTVSS VL: SYELTQPPSVSVSPGQTASITCSGDKLGDKYASWYQQKPGQSPVLVIYQDTKRPSGIPERFSGSNSGNTVTLTISGTQAMDEADYYCQAWDSSTGVFGGGTKLTVL
3. Antibody 14-8 (antibody, V domains shown) VH: QVQLVQSGAEVKKPGASVKVSCKASGYTFTGYYIHWVRQAPGKGPEWMGWINPNSGGTNYAQKFQGWVTMTRDTSISAAYMELSRLKFDDTAIYYCAKSGEKVGADLGYYDYGMDLWGQGTTVTVSS VL: SYELTQPPSVSVSPGQTARITCSGDALPKQYAYWYQQKPGQAPVMVIYKDTERPSGIPERFSGSSSGTTVTLTISGVQAEDEADYNCQSVDSSGAYVVFGGGTKLTVL
4. Antibody 13-17 (antibody, V domains shown) VH: QDQLVQSGAEVKKPGASVKVSCKVSGYTLPELSLHWVRQPPGKGLEWMGGFDPEDGETIYAQKFQGRVTMTEDTSTDTAYMELSSLRSEDTAVYYCAASTPMGGHTDWLDPWGQGTLVTVSS VL: QSVLTQPPSVSAAPGQKVTISCSGSSSNIGNNYVSWYQQLPGTAPKLLIYDNNKRPSGIPDRFSGSKSGTSATLGITGLQTGDEADYYCGTWDSSLSAGVFGGGTKLTVL

1: ~0.1 µg/mL; 2: ~0.04 µg/mL; 3: ~0.1 µg/mL; 4: ~0.1 µg/mL
